# biofilm formation 18 h, Average listing for each entry below
- Tested on: S. brevitalea DSM 7029 wild type
- Assay explanation: Biofilm formation of DSM 7029 wild type with compounds (crystal violet)
- Type: cell-based, Schlegelella brevitalea DSM 7029
- Condition set: relative to wild type treated with H2O = 100%; crystal violet 0.1%, OD600; mean of n = 3
Non-standard residues stand in square brackets, D forms with d. Residues, ends and D or L forms follow the SMILES beside them. *: point of attachment. dMet(O) = CS(=O)CC[C@@H](N)C(=O)O; Lauroyl = CCCCCCCCCCCC(=O)*; NH(CH2)4NH2 = NCCCCN*
Reported metric: biofilm formation 18 h, Average

compound="CCCCCCCCCCCC(=O)N[C@H](CC[S+](C)[O-])C(=O)N[C@H](CC(N)=O)C(=O)N1CCC[C@H]1C(=O)N[C@H](C(=O)N[C@H](Cc1ccccc1)C(=O)N1CCC[C@H]1C(=O)N[C@@H](Cc1c[nH]c2ccccc12)C(=O)N[C@@H](C(=O)N[C@@H](C)C(=O)N[C@H](C)C(=O)N[C@@H](CO)C(=O)N[C@@H](C)C(=O)NCCCCN)C(C)C)C(C)C (stereo partly shown) [Compound 8, Glidonin H] (Lauroyl-[dMet(O)][dN]PV[dF]PW[dV]A[dA]SA-{NH(CH2)4NH2})" observed_value=153.143%
compound="CSCC[C@@H](N)C(=O)N[C@H](CC(N)=O)C(=O)N1CCC[C@H]1C(=O)N[C@H](C(=O)N[C@H](Cc1ccccc1)C(=O)N1CCC[C@H]1C(=O)N[C@@H](Cc1c[nH]c2ccccc12)C(=O)N[C@@H](C(=O)N[C@@H](C)C(=O)N[C@H](C)C(=O)N[C@@H](CO)C(=O)N[C@@H](C)C(=O)NCCCCN)C(C)C)C(C)C [Compound 1, Glidonin A] (H-[dM][dN]PV[dF]PW[dV]A[dA]SA-{NH(CH2)4NH2})" observed_value=98.1978%
compound="CC(C)[C@H](NC(=O)[C@@H]1CCCN1C(=O)[C@@H](CC(N)=O)NC(=O)[C@H](N)CC[S+](C)[O-])C(=O)N[C@H](Cc1ccccc1)C(=O)N1CCC[C@H]1C(=O)N[C@@H](Cc1c[nH]c2ccccc12)C(=O)N[C@@H](C(=O)N[C@@H](C)C(=O)N[C@H](C)C(=O)N[C@@H](CO)C(=O)N[C@@H](C)C(=O)NCCCCN)C(C)C (stereo partly shown) [Compound 2, Glidonin B] (H-[dMet(O)][dN]PV[dF]PW[dV]A[dA]SA-{NH(CH2)4NH2})" observed_value=92.0189%
compound="CCCCCCCCCCCC(=O)N[C@H](CCSC)C(=O)N[C@H](CC(N)=O)C(=O)N1CCC[C@H]1C(=O)N[C@H](C(=O)N[C@H](Cc1ccccc1)C(=O)N1CCC[C@H]1C(=O)N[C@@H](Cc1c[nH]c2ccccc12)C(=O)N[C@@H](C(=O)N[C@@H](C)C(=O)N[C@H](C)C(=O)N[C@@H](CO)C(=O)N[C@@H](C)C(=O)NCCCCN)C(C)C)C(C)C [Compound 7, Glidonin G] (Lauroyl-[dM][dN]PV[dF]PW[dV]A[dA]SA-{NH(CH2)4NH2})" observed_value=152.732%

---

- Tested on: human gastric cancer cell SGC-7901
- Assay explanation: cells
- Assay type: cell-based
- Condition set: Homo sapiens, SGC-7901; MTT assay; Supplementary Table 11; read-out: IC50 SGC-7901
Reported metric: IC50

molecule="COc1cccc2c1C(=O)c1c(O)c3c(c(O)c1C2=O)C[C@@](O)(C(=O)CO)C[C@@H]3O[C@H]1C[C@H](N)[C@H](O)[C@H](C)O1 [doxorubicin, reference compound]" observed_value="140 nM"
